For each record, write down the corresponding viability at 12 days, 3 μM.
assay: DB cell viability; type: cell-based; conditions: human, DB cells
Value expressed in %; do not type the unit.

Prompt line: Identify measured viability at 12 days, 3 μM corresponding to CS(=O)(=O)c1ccc(-c2cnc(NCc3ccco3)n3cnnc23)cc1 [EED226, reference compound]
Response line: 67

Prompt line: Identify measured viability at 12 days, 3 μM corresponding to "Cc1ncsc1-c1ccc(CNC(=O)[C@@H]2C[C@@H](O)CN2C(=O)[C@@H](NC(=O)CCCNC(=O)c2ccc(-c3cnc(NCc4ccco4)n4cnnc34)cc2)C(C)(C)C)cc1"
Response line: 95

Prompt line: Identify measured viability at 12 days, 3 μM corresponding to CCCc1cc(C)[nH]c(=O)c1CNC(=O)c1cc(-c2ccc(N3CCN(C(C)C)CC3)nc2)cc2c1cnn2C(C)C [UNC1999, reference compound]
Response line: 67

---

molecular target: EED in HeLa cells (Homo sapiens, UniProt O75530); assay: Jess ProteinSimple analysis of EED levels; format: cell-based; settings: 5 μM, 4, 24 and 48 hrs, decrease stated at 24 hrs
Sequence (O75530 whole entry): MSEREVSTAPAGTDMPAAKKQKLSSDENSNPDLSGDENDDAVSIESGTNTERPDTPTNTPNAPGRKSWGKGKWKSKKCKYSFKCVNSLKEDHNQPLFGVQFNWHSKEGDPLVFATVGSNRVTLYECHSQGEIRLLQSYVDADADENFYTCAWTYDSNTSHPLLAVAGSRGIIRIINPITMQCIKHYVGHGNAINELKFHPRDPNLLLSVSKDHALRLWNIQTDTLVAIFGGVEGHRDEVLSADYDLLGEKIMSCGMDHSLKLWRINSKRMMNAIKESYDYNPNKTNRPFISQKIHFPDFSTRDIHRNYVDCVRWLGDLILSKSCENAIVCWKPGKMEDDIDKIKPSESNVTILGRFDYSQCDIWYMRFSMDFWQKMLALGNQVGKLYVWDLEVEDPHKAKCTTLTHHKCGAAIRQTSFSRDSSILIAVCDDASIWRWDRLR
measured-metric: EED levels (Jess)

>>> reported_value("Cc1ncsc1-c1ccc(CNC(=O)[C@@H]2C[C@@H](O)CN2C(=O)[C@@H](NC(=O)CCNC(=O)c2ccc(-c3cnc(NCc4ccco4)n4cnnc34)cc2)C(C)(C)C)cc1")
"decrease in the levels"
>>> reported_value("Cc1ncsc1-c1ccc(CNC(=O)[C@@H]2C[C@@H](O)CN2C(=O)[C@@H](NC(=O)CCCNC(=O)c2ccc(-c3cnc(NCc4ccco4)n4cnnc34)cc2)C(C)(C)C)cc1")
"decrease in the levels"

---

target: 6XHis-tagged recombinant EED (residues 1 – 441) (Homo sapiens, UniProt O75530); experiment: TR-FRET EED binding assay; conditions: TR-FRET EED IC50 relative to EED226
measured-metric: loss in potency compared to EED226 (fold)
Value expressed in fold; do not type the unit.

Prompt line: Give loss in potency compared to EED226; test system 6XHis-tagged recombinant EED (residues 1 – 441) (Homo sapiens, UniProt O75530); compound Cc1ncsc1-c1ccc(CNC(=O)[C@@H]2C[C@@H](O)CN2C(=O)[C@@H](NC(=O)CCOCCOCCNC(=O)c2ccc(-c3cnc(NCc4ccco4)n4cnnc34)cc2)C(C)(C)C)cc1 [UNC6845]
Response line: 2

Prompt line: Give loss in potency compared to EED226; test system 6XHis-tagged recombinant EED (residues 1 – 441) (Homo sapiens, UniProt O75530); compound Cc1ncsc1-c1ccc(CNC(=O)[C@@H]2C[C@@H](O)CN2C(=O)[C@@H](NC(=O)COCCOCCOCCNC(=O)c2ccc(-c3cnc(NCc4ccco4)n4cnnc34)cc2)C(C)(C)C)cc1 [UNC6846]
Response line: 14

Prompt line: Give loss in potency compared to EED226; test system 6XHis-tagged recombinant EED (residues 1 – 441) (Homo sapiens, UniProt O75530); compound Cc1ncsc1-c1ccc(CNC(=O)[C@@H]2C[C@@H](O)CN2C(=O)[C@@H](NC(=O)CCCCNC(=O)c2ccc(-c3cnc(NCc4ccco4)n4cnnc34)cc2)C(C)(C)C)cc1 [UNC6853]
Response line: 8

Prompt line: Give loss in potency compared to EED226; test system 6XHis-tagged recombinant EED (residues 1 – 441) (Homo sapiens, UniProt O75530); compound Cc1ncsc1-c1ccc(CNC(=O)[C@@H]2C[C@@H](O)CN2C(=O)[C@@H](NC(=O)CCOCCOCCOCCOCCNC(=O)c2ccc(-c3cnc(NCc4ccco4)n4cnnc34)cc2)C(C)(C)C)cc1 [UNC6847]
Response line: 5

Prompt line: Give loss in potency compared to EED226; test system 6XHis-tagged recombinant EED (residues 1 – 441) (Homo sapiens, UniProt O75530); compound Cc1ncsc1-c1ccc(CNC(=O)[C@@H]2C[C@@H](O)CN2C(=O)[C@@H](NC(=O)CCNC(=O)c2ccc(-c3cnc(NCc4ccco4)n4cnnc34)cc2)C(C)(C)C)cc1 [UNC6851]
Response line: 6

Prompt line: Give loss in potency compared to EED226; test system 6XHis-tagged recombinant EED (residues 1 – 441) (Homo sapiens, UniProt O75530); compound Cc1ncsc1-c1ccc(CNC(=O)[C@@H]2C[C@@H](O)CN2C(=O)[C@@H](NC(=O)CCCNC(=O)c2ccc(-c3cnc(NCc4ccco4)n4cnnc34)cc2)C(C)(C)C)cc1 [UNC6852]
Response line: 5.5
